Taken from patent US8962244B2.

- assayed system: POS-1 (Caenorhabditis elegans, UniProt G5EF15)
- Construct: 6-his tag (N); made in house; host or cells: E. coli BL21 (DE3) Gold
- Sequence (G5EF15 80-180): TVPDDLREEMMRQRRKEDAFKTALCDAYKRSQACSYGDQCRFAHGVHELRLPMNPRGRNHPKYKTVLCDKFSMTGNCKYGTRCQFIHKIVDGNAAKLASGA
- experimental protocol: Fluorescence polarization screening of POS-1 binding to fluorescein-labeled BMF018 RNA
- condition set: 192 μM test compound; score = polarization relative to no-drug and no-protein controls; 0.25 = 75% inhibition; lowest score = greatest inhibition; read-out: POS-1 score
Threshold check on remaining activity at 192 µM: strictly below 20% is true; on or above 20% is false.

Use these answered entries as a reference point.
INSERT INTO results (compound, qualitative_label) VALUES
  ('CCOc1ccc(C(=O)NC(=S)Nc2ccc(C(=O)O)c(Cl)c2)cc1Br [DK]', 'true'),
  ('COc1cc(-c2n[nH]c(=S)[nH]2)cc(OC)c1OC [DU]', 'true'),
  ('CCOC(=O)c1ccc(N2NC(=O)/C(=C/c3ccc(OC(=O)c4cccs4)c(OC)c3)C2=O)cc1 [EW]', 'false'),
  ('CC(=O)Nc1nc2ccc(S(=O)(=O)NC(C)=O)cc2s1 [ED]', 'false');

From here, focus on the item given below.
**Q:** Given Cc1cc(OCC(=O)Nc2ccc(S(=O)(=O)Nc3nccs3)cc2)ccc1Br [DT] , is recorded remaining activity at 192 µM strictly lower than 20%?
**A:** true

* * *

- assayed system: MEX-5 (Caenorhabditis elegans, UniProt Q9XUB2)
- Construct: The fragment of mex-5 containing the TZF domain (amino acids 236-350) was amplified; made in house; host or cells: Escherichia coli JM109
- Sequence (Q9XUB2 236-350): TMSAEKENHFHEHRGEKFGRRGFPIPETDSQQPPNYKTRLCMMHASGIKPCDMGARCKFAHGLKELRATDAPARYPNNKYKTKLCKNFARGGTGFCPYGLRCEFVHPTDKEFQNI
- experimental protocol: Fluorescence polarization screening of MEX-5 binding to fluorescein-labeled TCR2 RNA
- condition set: 192 μM test compound; score = polarization relative to no-drug and no-protein controls; 0.25 = 75% inhibition; lowest score = greatest inhibition; read-out: MEX-5 score
- Description: The expression and purification of recombinant MEX-5 protein has previously been described in Pagano, J. M., Farley, B. M., McCoig, L. M. and Ryder, S. P. (2007) “Molecular basis of RNA recognition by the embryonic polarity determinant MEX-5;” J Biol Chem; 282, 8883-8894. […] MEX-5 is expressed in Escherchia. coli JM109 liquid cultures grown at 37° C. […] The protein concentration was determined by measuring absorbance at 280 nm and the calculated extinction coefficient. […]
Threshold check on remaining activity at 192 µM: strictly below 10% is fulfilled; on or above 10% is not fulfilled.

Use these answered entries as a reference point.
INSERT INTO assay_data (compound, qualitative_label) VALUES
  ('Cc1ccccc1Cn1c(S)nc2ccccc21', 'not fulfilled'),
  ('CCOC(=O)c1ccccc1OC(=O)c1ccc2c(c1)C1C=CCC1C(C(=O)O)N2 (stereo not shown)', 'fulfilled'),
  ('CCc1ccc(-n2c(-c3cc(Cl)ccc3OC)n[nH]c2=S)cc1', 'not fulfilled'),
  ('COc1ccc(OCc2nnc(S)n2-c2ccccc2)cc1', 'not fulfilled'),
  ('O=S(=O)(Nc1ccc(O)c(NS(=O)(=O)c2ccccc2)c1)c1ccccc1', 'fulfilled'),
  ('O=C(O)C1Nc2cc(Cl)cc(Cl)c2C2C=CCC12 (stereo not shown)', 'fulfilled'),
  ('COc1cc(-c2nnc(S)n2-c2ccc(C)cc2C)cc(OC)c1OC', 'not fulfilled'),
  ('O=C1NN(c2cccc(Br)c2)C(=O)/C1=C\c1cccc(OC(=O)c2cccs2)c1', 'not fulfilled');

**Q:** Given `O=S(=O)(Nc1cc(Cl)c(O)c2ccccc12)c1cccs1` , is recorded remaining activity at 192 µM strictly lower than 10%?
**A:** fulfilled

**Q:** Given `CC(C)Oc1ccc(Cc2nnc(S)n2-c2ccccc2)cc1Cl` , is recorded remaining activity at 192 µM strictly lower than 10%?
**A:** not fulfilled

**Q:** Given `Cc1cc(C)nc(NS(=O)(=O)c2ccc(Nc3nc(-c4ccc(O)c(O)c4)cs3)cc2)n1` , is recorded remaining activity at 192 µM strictly lower than 10%?
**A:** fulfilled

**Q:** Given `Cc1nnc(NC(=O)c2cccc(C(=O)Nc3nnc(C)s3)n2)s1` , is recorded remaining activity at 192 µM strictly lower than 10%?
**A:** fulfilled

**Q:** Given `CC1(C)Cc2ccccc2-c2[nH]c3nnc(S)n3c(=O)c21` , is recorded remaining activity at 192 µM strictly lower than 10%?
**A:** fulfilled

* * *

# remaining activity at 192 µM values compiled below
- assayed system: MEX-5 (Caenorhabditis elegans)
- Construct: The fragment of mex-5 containing the TZF domain (amino acids 236-350) was amplified; made in house; host or cells: Escherichia coli JM109
- experimental protocol: Fluorescence polarization screening of MEX-5 binding to fluorescein-labeled TCR2 RNA
- condition set: 192 μM test compound; score = polarization relative to no-drug and no-protein controls; 0.25 = 75% inhibition; lowest score = greatest inhibition; read-out: MEX-5 score
Report only the number, with the unit % understood.

Please review the following examples before continuing.
INSERT INTO measurements (compound, readout_name, result_number) VALUES
  ('O=C(O)c1ccc(Sc2nnc(-c3cccc(Br)c3)o2)c([N+](=O)[O-])c1 [G]', 'remaining activity at 192 µM', -0.64),
  ('Sc1nnc(CCc2ccccc2)n1-c1ccccc1 [BD]', 'remaining activity at 192 µM', 15.5),
  ('CCOC(=O)c1c[nH]c2nc3ccccc3n2c1=O [AM]', 'remaining activity at 192 µM', 10.5),
  ('CCOc1cc(C(NC(C)=O)c2cc([N+](=O)[O-])c3cccnc3c2O)ccc1O (stereo not drawn) [AL]', 'remaining activity at 192 µM', 10.4),
  ('Cc1ccc(-c2cc(C(=O)Nc3ccccc3Cl)c3ccccc3n2)o1 [BW]', 'remaining activity at 192 µM', 21.2),
  ('O=[N+]([O-])c1ccc(NS(=O)(=O)c2ccccc2)c(NS(=O)(=O)c2ccccc2)c1 [AQ]', 'remaining activity at 192 µM', 12.4),
  ('COc1ccc(S(=O)(=O)Nc2ccccc2NS(=O)(=O)c2ccc(OC)cc2)cc1 [E]', 'remaining activity at 192 µM', -1.07),
  ('CC(=O)Nc1nc(N2C(=O)c3ccccc3C2=O)n(-c2ccccc2)n1 [CV]', 'remaining activity at 192 µM', 25.5);

Turning now to a further compound:
Bench note, MEX-5 (Caenorhabditis elegans): CCc1nnc(NS(=O)(=O)c2ccc(NC(=O)c3cc4cc(OC)ccc4oc3=O)cc2)s1 [BU] , remaining activity at 192 µM reads 20.8

* * *

# remaining activity at 192 µM values compiled below
- assayed system: POS-1 (Caenorhabditis elegans)
- Construct: 6-his tag (N); made in house; host or cells: E. coli BL21 (DE3) Gold
- experimental protocol: Fluorescence polarization screening of POS-1 binding to fluorescein-labeled BMF018 RNA
- condition set: 192 μM test compound; score = polarization relative to no-drug and no-protein controls; 0.25 = 75% inhibition; lowest score = greatest inhibition; read-out: POS-1 score
Report only the number, with the unit % understood.

Please review the following examples before continuing.
INSERT INTO assay_data (compound, assayed_system, readout_unit, result_number) VALUES
  ('CCOC(=O)c1ccccc1OC(=O)c1ccc2c(c1)C1C=CCC1C(C(=O)O)N2 (stereo not shown) [B]', 'POS-1 (Caenorhabditis elegans)', '%', 5.51),
  ('CCCCOc1cccc(C(=O)Nc2ccc(S(=O)(=O)Nc3nnc(CC)s3)cc2)c1 [EP]', 'POS-1 (Caenorhabditis elegans)', '%', 26),
  ('CCOc1ccc(C(=O)NC(=S)Nc2ccccc2C(=O)O)cc1Br [DO]', 'POS-1 (Caenorhabditis elegans)', '%', 16.7),
  ('O=C1NN(c2ccccc2)C(=O)/C1=C\c1cccc(OC(=O)c2cccs2)c1 [CA]', 'POS-1 (Caenorhabditis elegans)', '%', 23),
  ('CCOC(=O)C1=C(C)Nc2[nH]c(=O)[nH]c(=O)c2C1c1ccccc1[N+](=O)[O-] (stereo not shown) [EF]', 'POS-1 (Caenorhabditis elegans)', '%', 22.8);

Bench note, POS-1 (Caenorhabditis elegans): COC(=O)c1ccccc1OC(=O)c1ccc2c(c1)C1C=CCC1C(C(=O)O)N2 (stereo not shown) [A] , remaining activity at 192 µM reads 7.5

Bench note, POS-1 (Caenorhabditis elegans): Cc1cc(NS(=O)(=O)c2ccc(NC(=O)c3ccc(C(C)(C)C)c(Br)c3)cc2)no1 [DP] , remaining activity at 192 µM reads 16.8

Bench note, POS-1 (Caenorhabditis elegans): O=C(O)c1ccc(Cl)c(NC(=S)NC(=O)c2cc(I)ccc2Cl)c1 [EJ] , remaining activity at 192 µM reads 23.4

Bench note, POS-1 (Caenorhabditis elegans): NC(=O)c1ccccc1NC(=O)CN(c1cccc(Br)c1)S(=O)(=O)c1ccccc1 [DC] , remaining activity at 192 µM reads 7.5

Bench note, POS-1 (Caenorhabditis elegans): COc1nnc(-c2ccc(C)c(S(=O)(=O)NCC3CCCO3)c2)c2ccccc12 (stereo not shown) [DD] , remaining activity at 192 µM reads 7.5

Bench note, POS-1 (Caenorhabditis elegans): O=S(=O)(Nc1ccc(Cl)cc1O)c1ccccc1 [D] , remaining activity at 192 µM reads -3.79

Bench note, POS-1 (Caenorhabditis elegans): Oc1ccc(-c2csc(Nc3cccc4ccccc34)n2)cc1O [AY] , remaining activity at 192 µM reads 18

Bench note, POS-1 (Caenorhabditis elegans): Cc1ccc(O)c(NS(=O)(=O)c2ccc([N+](=O)[O-])cc2)c1 [CD] , remaining activity at 192 µM reads 12.4

Bench note, POS-1 (Caenorhabditis elegans): O=C(O)c1ccccc1NC(=S)NC(=O)c1sc2ccccc2c1Cl [BP] , remaining activity at 192 µM reads 4.54

Bench note, POS-1 (Caenorhabditis elegans): O=S(=O)(Nc1ccc(O)c(NS(=O)(=O)c2ccccc2)c1)c1ccccc1 [F] , remaining activity at 192 µM reads -2.79

Bench note, POS-1 (Caenorhabditis elegans): Cn1c(S)nnc1-c1ccccc1O [Z] , remaining activity at 192 µM reads 12.7
